Data origin, for the record: the supplement of paper PMC9112550

# Tested on: Escherichia coli TOP10
# assayProcedure: shrunken log2 fold change of peptide-encoding DNA abundance (4.5 h post-induction vs induction); higher = less antimicrobial activity (less host growth inhibition)
# reportedConditions: time post-induction: 4.5 h; library: site-saturation at positions 5, 18, 19, 20
Please map values of shrunken log2 fold change to classes as shown: small value (below -0.2), mid value (-0.2 to below -0.02), large value (-0.02 or more)

In: Which category fits this record: `RRIRLRPPRLPRPRPRPNRIPRP`
Out: large value

In: For `RRIRLRPPRLPRPRPRPGPDPRP` then?
Out: large value

In: Consider next the sequence `RRIRVRPPRLPRPRPRPFIIPRP` in the same way.
Out: small value

In: Item: `RRIRMRPPRLPRPRPRPPDRPRP`
Out: large value

In: Same read-out for `RRIRARPPRLPRPRPRPKNCPRP` ?
Out: small value

In: Try this sequence too: `RRIRSRPPRLPRPRPRPQFCPRP`
Out: mid value

In: Can you handle `RRIRYRPPRLPRPRPRPDLSPRP` next?
Out: mid value

In: Could you do the same for `RRIRCRPPRLPRPRPRPYEFPRP` , please?
Out: mid value

In: For `RRIRHRPPRLPRPRPRPFDIPRP` then?
Out: small value

In: What do you have for `RRIRWRPPRLPRPRPRPKRQPRP` ?
Out: large value

---

# Test system: Escherichia coli TOP10
# assayProcedure: shrunken log2 fold change of peptide-encoding DNA abundance (4.5 h post-induction vs induction); higher = less antimicrobial activity (less host growth inhibition)
# reportedConditions: time post-induction: 4.5 h; library: site-saturation at positions 5, 18, 19, 20
experimentalEndpoint: shrunken log2 fold change
Enter a number only.

In: Which shrunken log2 fold change is reported for this sequence? `RRIRSRPPRLPRPRPRPPRRPRP`
Out: 0.701

In: Cool, now `RRIRRRPPRLPRPRPRPMAGPRP`
Out: 0.111

In: Moving on to the next sequence: `RRIRFRPPRLPRPRPRPYMGPRP`
Out: -0.225

In: How about `RRIRWRPPRLPRPRPRPMISPRP` ?
Out: 0.248

---

# Test system: Escherichia coli TOP10
# assayProcedure: shrunken log2 fold change of peptide-encoding DNA abundance (4.5 h post-induction vs induction); higher = less antimicrobial activity (less host growth inhibition)
# reportedConditions: time post-induction: 4.5 h; library: site-saturation at positions 5, 18, 19, 20
Would you kindly list shrunken log2 fold change for each of these sequences?
Answer field: number only, no words.

In: Name the recorded shrunken log2 fold change for `RRIRFRPPRLPRPRPRPRTNPRP` .
Out: -0.179

In: Next up: `RRIRERPPRLPRPRPRPDNKPRP`
Out: -0.75

In: Repeat for the following sequence: `RRIRYRPPRLPRPRPRPPSFPRP`
Out: 0.0588

In: Now try `RRIRGRPPRLPRPRPRPYITPRP` .
Out: -0.302

In: Param item: `RRIRFRPPRLPRPRPRPYFPPRP`
Out: -0.599

---

I'd appreciate it if you could supply shrunken log2 fold change values for the items below.
# Test system: Escherichia coli TOP10;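 also: peptides expressed intracellularly from a pBAD plasmid library in pooled LB shake-flask culture, induced with 0.3% L-arabinose, DNA abundance read by NGS, three biological replicates, DESeq2 with apeglm shrinkage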
# assayProcedure: shrunken log2 fold change of peptide-encoding DNA abundance (4.5 h post-induction vs induction); higher = less antimicrobial activity (less host growth inhibition)
# reportedConditions: time post-induction: 4.5 h; library: site-saturation at positions 5, 18, 19, 20
Keep the answer to the number alone.

In: Data request, read-out shrunken log2 fold change, for `RRIRCRPPRLPRPRPRPNLTPRP`
Out: -0.162

In: Thanks! And `RRIRFRPPRLPRPRPRPKVDPRP` ?
Out: -0.0492

In: Continue with `RRIRVRPPRLPRPRPRPQCFPRP`
Out: 0.00325

In: Please answer likewise for `RRIRYRPPRLPRPRPRPMGFPRP`
Out: -0.179

In: Would you kindly repeat that for `RRIRERPPRLPRPRPRPKMAPRP` ?
Out: 2.39

In: Another sequence to check: `RRIRGRPPRLPRPRPRPPFCPRP`
Out: 0.592

In: Subsequent entry: `RRIRLRPPRLPRPRPRPGVTPRP`
Out: 0.0426

In: Similarly, `RRIRWRPPRLPRPRPRPWMCPRP` ?
Out: -0.174

In: Consider next the sequence `RRIRTRPPRLPRPRPRPPNWPRP` in the same way.
Out: 0.845

In: Input `RRIRNRPPRLPRPRPRPHSYPRP`
Out: 0.132

In: And the next one, `RRIRTRPPRLPRPRPRPVWNPRP` ?
Out: -0.117

In: What do you have for `RRIRRRPPRLPRPRPRPPAPPRP` ?
Out: 1.13

In: Lookup `RRIRWRPPRLPRPRPRPRCFPRP`
Out: 0.398

In: # repeat for `RRIRPRPPRLPRPRPRPMPMPRP`
Out: -0.301

In: What about this sequence? `RRIRERPPRLPRPRPRPGQIPRP`
Out: 0.0685

In: What do you get for `RRIRLRPPRLPRPRPRPLKAPRP` ?
Out: -0.153

In: Would you mind doing `RRIRTRPPRLPRPRPRPLFNPRP` as well?
Out: -0.692

In: Same question for `RRIRHRPPRLPRPRPRPSSLPRP` please.
Out: -0.153

In: Same read-out for `RRIRYRPPRLPRPRPRPSFDPRP` ?
Out: -1.2

In: Can you handle `RRIRSRPPRLPRPRPRPAAEPRP` next?
Out: 0.466

In: Okay, and `RRIRWRPPRLPRPRPRPHGQPRP` ?
Out: -0.0861

In: Another: `RRIRIRPPRLPRPRPRPVIAPRP`
Out: -0.388

In: Note, next up: `RRIRLRPPRLPRPRPRPQSNPRP`
Out: -0.0786

In: Can you handle `RRIRDRPPRLPRPRPRPTADPRP` next?
Out: 0.133

In: Please answer likewise for `RRIRCRPPRLPRPRPRPHDQPRP`
Out: 0.0433

In: Next: `RRIRGRPPRLPRPRPRPQWQPRP`
Out: -0.134

In: And the next one, `RRIRNRPPRLPRPRPRPSECPRP` ?
Out: -0.272

In: Next: `RRIRRRPPRLPRPRPRPILIPRP`
Out: 0.118

In: Same thing, different sequence: `RRIRYRPPRLPRPRPRPNASPRP`
Out: -0.088

In: Request: `RRIRWRPPRLPRPRPRPRRQPRP`
Out: -0.0653

In: What would you report for `RRIRARPPRLPRPRPRPSVHPRP` ?
Out: -0.0906

In: Now this one: `RRIRCRPPRLPRPRPRPCRHPRP`
Out: -0.196

In: Follow-up item: `RRIRQRPPRLPRPRPRPVVFPRP`
Out: 1.25

In: And what about the sequence `RRIRTRPPRLPRPRPRPDKIPRP` ?
Out: -0.172

In: Next record, please: `RRIRGRPPRLPRPRPRPKLGPRP`
Out: 1.12

In: Next: `RRIRWRPPRLPRPRPRPEYKPRP`
Out: 0.472

In: Cool, now `RRIRMRPPRLPRPRPRPTFIPRP`
Out: -0.027

In: And what about the sequence `RRIRVRPPRLPRPRPRPNEFPRP` ?
Out: -0.00739

In: Next sequence up: `RRIRGRPPRLPRPRPRPDMNPRP`
Out: 1.35

In: Proceed to `RRIRVRPPRLPRPRPRPHVDPRP`
Out: 0.0108

In: Could you do the same for `RRIRARPPRLPRPRPRPNEFPRP` , please?
Out: -0.362

In: Same lookup for `RRIRTRPPRLPRPRPRPFNGPRP` , please.
Out: -0.142

In: Moving on to `RRIRHRPPRLPRPRPRPIPEPRP`
Out: -0.16

In: Now consider `RRIRSRPPRLPRPRPRPYGLPRP` .
Out: -0.0943

In: Can you handle `RRIRERPPRLPRPRPRPGLRPRP` next?
Out: 0.0748

In: Moving on to `RRIRLRPPRLPRPRPRPWKWPRP`
Out: -0.184

In: Now consider `RRIRFRPPRLPRPRPRPLCRPRP` .
Out: -0.406

In: Item: `RRIRTRPPRLPRPRPRPWSQPRP`
Out: 0.0431

In: What about `RRIRTRPPRLPRPRPRPRTQPRP` ?
Out: 0.172

In: // same read-out, input: `RRIRDRPPRLPRPRPRPFMFPRP`
Out: 0.033

In: Same read-out for `RRIRNRPPRLPRPRPRPTFWPRP` ?
Out: 0.323

In: Now try `RRIRQRPPRLPRPRPRPALDPRP` .
Out: 0.296

In: Now the same for `RRIRRRPPRLPRPRPRPWYTPRP`
Out: -0.637

In: Next entry: `RRIRQRPPRLPRPRPRPQVFPRP`
Out: 0.131

In: Same read-out for `RRIRFRPPRLPRPRPRPRADPRP` ?
Out: 0.223
